Target: CFTR (Homo sapiens, UniProt P13569, DEL508-508)
Construct: endogenous in cells; host or cells: primary human bronchial epithelial cells from CF subjects (F508del/MF-HBE), differentiated at air-liquid interface
Sequence (P13569 with tags, fused parts or gaps DEL508-508): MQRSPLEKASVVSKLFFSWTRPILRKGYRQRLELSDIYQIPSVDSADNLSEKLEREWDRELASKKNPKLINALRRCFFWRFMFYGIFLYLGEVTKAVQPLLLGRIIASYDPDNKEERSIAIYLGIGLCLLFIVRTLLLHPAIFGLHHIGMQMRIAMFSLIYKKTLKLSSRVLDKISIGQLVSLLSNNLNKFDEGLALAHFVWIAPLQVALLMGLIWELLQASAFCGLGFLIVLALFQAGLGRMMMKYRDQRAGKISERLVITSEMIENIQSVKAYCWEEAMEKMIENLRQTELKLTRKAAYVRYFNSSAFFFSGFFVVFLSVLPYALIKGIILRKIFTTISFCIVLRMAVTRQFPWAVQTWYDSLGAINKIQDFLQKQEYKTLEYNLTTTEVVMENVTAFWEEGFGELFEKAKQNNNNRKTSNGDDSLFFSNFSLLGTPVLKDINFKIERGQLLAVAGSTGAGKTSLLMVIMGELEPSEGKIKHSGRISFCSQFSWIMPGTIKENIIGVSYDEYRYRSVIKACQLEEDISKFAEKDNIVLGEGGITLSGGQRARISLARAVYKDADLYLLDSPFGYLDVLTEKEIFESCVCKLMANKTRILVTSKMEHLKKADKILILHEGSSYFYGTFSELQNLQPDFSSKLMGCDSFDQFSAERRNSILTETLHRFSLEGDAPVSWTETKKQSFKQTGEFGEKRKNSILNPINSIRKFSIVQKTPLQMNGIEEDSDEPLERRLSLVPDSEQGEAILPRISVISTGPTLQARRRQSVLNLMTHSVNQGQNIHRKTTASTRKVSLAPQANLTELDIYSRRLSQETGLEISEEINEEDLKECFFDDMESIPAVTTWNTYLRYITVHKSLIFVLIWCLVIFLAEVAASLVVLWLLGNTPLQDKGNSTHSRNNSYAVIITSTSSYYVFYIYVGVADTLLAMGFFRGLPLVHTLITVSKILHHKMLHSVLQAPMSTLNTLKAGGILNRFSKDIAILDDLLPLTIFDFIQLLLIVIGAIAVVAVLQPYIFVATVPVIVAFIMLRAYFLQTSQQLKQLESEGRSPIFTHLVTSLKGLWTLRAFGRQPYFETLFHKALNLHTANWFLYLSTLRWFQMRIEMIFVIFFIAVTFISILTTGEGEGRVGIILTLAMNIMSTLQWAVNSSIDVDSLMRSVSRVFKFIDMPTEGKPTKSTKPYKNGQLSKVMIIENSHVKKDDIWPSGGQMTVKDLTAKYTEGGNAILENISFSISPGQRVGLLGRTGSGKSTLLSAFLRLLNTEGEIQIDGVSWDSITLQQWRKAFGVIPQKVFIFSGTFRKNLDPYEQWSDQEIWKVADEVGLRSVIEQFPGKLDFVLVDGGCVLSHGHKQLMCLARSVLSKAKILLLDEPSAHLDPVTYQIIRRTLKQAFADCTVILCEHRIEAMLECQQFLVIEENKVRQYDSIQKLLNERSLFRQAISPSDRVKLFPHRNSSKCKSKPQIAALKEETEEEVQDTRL
Experiment: HBE assay: Ussing chamber assay of CFTR-mediated short-circuit currents
Assay type: cell-based
Conditions: HBE assay; read-out: HBE EC50
Protocol: 1. Ussing Chamber Assay of CFTR-Mediated Short-Circuit Currents […] To isolate the CFTR-mediated short-circuit (ISC) current, F508del/MF-HBE grown on Costar® Snapwell™ cell culture inserts were mounted in an Ussing chamber and the transepithelial ISC was measured under voltage-clamp recording conditions (Vhold=0 mV) at 37° C. […] The CFTR-mediated ISC (μA/cm^2) for each condition was determined from the peak forskolin response to the steady-state current following inhibition. […]
OBSERVED_PROPERTY: EC50

1) Cc1cccc(C)c1-c1cc2nc(n1)NS(=O)(=O)c1cccc(c1)C(=O)N(Cc1ncc(OC(C)C)cc1C#N)[C@H](CC(C)(C)C)CO2 : < 1 µM
2) Cc1cccc(C)c1-c1cc2nc(n1)NS(=O)(=O)c1cccc(c1)C(=O)N(Cc1cccc(N3[C@H](C)CC[C@@H]3C)n1)[C@H](CC(C)(C)C)CO2 (stereo in doubt) : < 1 µM
3) Cc1ccc(N2CCCC2C)nc1CN1C(=O)c2cccc(c2)S(=O)(=O)Nc2nc(cc(-c3c(C)cccc3C)n2)OC[C@H]1CC(C)(C)C (stereo in doubt) : < 1 µM
